Item-by-item account of inhibition
assay target: Mannose-6-phosphate isomerase (Homo sapiens)
test protocol: inhibitors of human PMI, primary screen, biochemical, fluorescence intensity, coupled assay (AID 1209);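 note: plate controls were DMSO vehicle for no effect and wells lacking substrate for full effect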
measurement context: purified PMI enzyme, at 20 µM, active compounds read high
The whole screen tested about 190,000 compounds, of which about 810 (0.43%) were called active. The entries come from a sample that favours actives as a whole.
recorded endpoint: inhibition

# molecule, meas value
data = [
    ("COc1ccc(-c2nc(CSCC(=O)NC3CCCc4ccccc43)c(C)o2)cc1 (stereo not given)", "7% (inactive)"),
    ("COc1cccc(CNc2ccc(S(N)(=O)=O)cc2)c1OC", "6.1% (inactive)"),
    ("CCOC(=O)Cc1csc(NC(=O)c2c(O)c3ccccc3n(C)c2=O)n1", "7.5% (inactive)"),
    ("CC1CCN(C(=O)CCc2nnc(-c3ccccc3)o2)CC1", "1.6% (inactive)"),
    ("CC(=O)Nc1cccc(C(=O)O)n1", "6.7% (inactive)"),
    ("COC(=O)c1ccc[n+](CC(=O)c2ccc(Br)cc2)c1", "-34.8% (inactive)"),
    ("Clc1ccccc1-c1nn2c(COc3ccccc3)nnc2s1", "9.4% (inactive)"),
    ("O=C(COC(=O)c1cccnc1Cl)Nc1ccccc1OC(F)F", "-0.4% (inactive)"),
    ("CCOC(=O)C1=C(C)NC(=O)NC1c1c(C)nn(-c2ccccc2)c1Cl (stereo not given)", "53.9% (active)"),
    ("COc1cccc(NC(=O)c2cc(-c3cccnc3)nc3c(Cl)cccc23)c1", "1.6% (inactive)"),
    ("COc1ccccc1-n1c(SCC(=O)NCc2ccc3c(c2)OCO3)nc2cc([N+](=O)[O-])ccc21", "59.9% (active)"),
    ("c1ccc(OCc2nnc3sc(-c4cccs4)nn23)cc1", "65.5% (active)"),
    ("COc1cccc(CNc2ccc(N3CCC(C)CC3)cc2)c1OC", "67.3% (active)"),
    ("OCC[n+]1ccc(/C=C/c2c[nH]c3ccccc23)cc1", "2.7% (inactive)"),
    ("Cc1ccc2c(c1)C(=O)CCN2", "-1.2% (inactive)"),
    ("CCOC(=O)Cc1csc(NC(=O)c2c(-c3ccccc3)noc2C)n1", "2.9% (inactive)"),
    ("Cc1ccccc1NS(=O)(=O)c1ccc(C(=O)OCC(=O)NCC(C)C)cc1", "-11.1% (inactive)"),
    ("O=C1NC(=O)/C(=C/c2ccc(O)cc2)S1", "-8.7% (inactive)"),
    ("CCCn1c(CNS(=O)(=O)c2ccc(C)cc2)nc2ccccc21", "83.3% (active)"),
    ("COc1ccc(CNc2nc(-c3cccnc3)nn2C(=O)C(C)C)cc1", "1.5% (inactive)"),
    ("CCOC(=O)C1=C(C)N(C)C(=O)NC1c1c(C)nn(-c2ccccc2)c1C (stereo not given)", "-0.2% (inactive)"),
    ("Cc1nc2[nH]c(=S)n(C)c(=O)c2nc1C", "-17.3% (inactive)"),
    ("N/C(COc1ncn(-c2ccccc2)n1)=N\\S(=O)(=O)c1ccc(Cl)cc1Cl", "9.1% (inactive)"),
    ("COc1ccccc1CNc1ccc(N2CCCCC2)cc1", "67.3% (active)"),
    ("CC1CCN(c2ccc(NC(=O)Cc3ccccc3)cc2)CC1", "13.5% (inactive)"),
    ("COc1ccnc(Oc2ccc(Cl)cc2)c1C#N", "-5.9% (inactive)"),
    ("CCOc1ccccc1OCc1nn2c(COc3ccccc3)nnc2s1", "45.2% (inactive)"),
    ("O=C1CCNc2ccc(-c3ccccc3)cc21", "3.1% (inactive)"),
    ("COc1ccc(OC)c(NC(=O)C2C(C(=O)O)C3(Cl)C(Cl)=C(Cl)C2(Cl)C3(Cl)Cl)c1 (stereo not given)", "18.2% (inactive)"),
    ("O=C(CSc1nnnn1-c1ccc(F)cc1)NC1CCCCC1", "15.6% (inactive)"),
]
